- MEASURED_TARGET: human NOPr (Homo sapiens, UniProt P41146)
- Sequence (P41146 whole entry): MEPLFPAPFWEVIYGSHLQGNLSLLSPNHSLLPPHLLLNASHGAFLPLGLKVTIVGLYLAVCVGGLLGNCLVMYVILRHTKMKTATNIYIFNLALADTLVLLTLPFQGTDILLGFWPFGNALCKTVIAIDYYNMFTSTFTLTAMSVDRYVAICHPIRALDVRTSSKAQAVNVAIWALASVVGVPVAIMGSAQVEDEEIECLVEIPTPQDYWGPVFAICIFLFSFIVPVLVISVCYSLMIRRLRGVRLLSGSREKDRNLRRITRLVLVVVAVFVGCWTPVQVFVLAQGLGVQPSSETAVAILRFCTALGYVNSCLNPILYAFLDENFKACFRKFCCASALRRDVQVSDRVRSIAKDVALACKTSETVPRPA
- ASSAY_SUMMARY: Antagonism of nociceptin-stimulated [35S]GTPγS binding, CHO membranes overexpressing NOPr (SPA, antagonist mode)
- Type: biochemical
PROPERTY_NAME: Ki

Using the record for C=C1CC[C@@]2(O)[C@H]3Cc4ccc(O)c5c4[C@@]2(CCN3CC2CC2)[C@H]1O5 [Nalmefene, nalmefene, reference compound] , state its measured Ki.
> 10 µM

Where do these numbers come from? They come from paper PMC4281354.
